Reference source: patent US20200079833A1

systemUnderTest: glucagon receptor (GCGR), primary cAMP assay cell line (human, UniProt P47871 26-477)
Sequence (P47871 26-477): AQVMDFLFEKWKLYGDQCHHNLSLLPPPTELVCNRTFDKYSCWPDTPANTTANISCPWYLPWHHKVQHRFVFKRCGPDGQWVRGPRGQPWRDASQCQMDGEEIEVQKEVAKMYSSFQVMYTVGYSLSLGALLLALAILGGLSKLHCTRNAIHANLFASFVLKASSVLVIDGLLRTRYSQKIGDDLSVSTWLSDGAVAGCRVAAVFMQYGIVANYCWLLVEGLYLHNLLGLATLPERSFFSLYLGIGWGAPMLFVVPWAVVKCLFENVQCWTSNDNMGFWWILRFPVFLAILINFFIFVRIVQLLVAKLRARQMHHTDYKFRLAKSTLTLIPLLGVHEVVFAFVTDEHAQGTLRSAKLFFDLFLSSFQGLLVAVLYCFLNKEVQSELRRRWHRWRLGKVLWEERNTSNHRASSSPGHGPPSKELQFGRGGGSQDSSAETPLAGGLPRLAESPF
testProtocol: cell-based or functional assay
Starred links: 1 amine or outer side, 2 acyl side, 3 side chain; linkers in the order of their positions; H or OH if unused. Non-standard residues stand in square brackets, D forms with d. Groups on a side chain read outwards from the residue. Primed or numbered codes have the meaning given here. No end group written: not given here. *: point of attachment. γGlu = O=C(O)[C@H](CCC(=O)[*:2])N[*:1]; αMeF = C[C@](N)(Cc1ccccc1)C(=O)O; αMeK = C[C@](N)(CCCCN)C(=O)O; Lauroyl = CCCCCCCCCCCC(=O)*; αMeS = C[C@](N)(CO)C(=O)O; PEG2′ = not defined here; Aib = CC(C)(N)C(=O)O
measurementKind: cAMP Primary assay EC50, n2

So for H[Aib]EGS[αMeF]TSDV[αMeS]SK([PEG2′-PEG2′-γGlu-Lauroyl])LEGEAA[αMeK]K([PEG2′-PEG2′-γGlu-Lauroyl])FIK([PEG2′-PEG2′-γGlu-Lauroyl])FVVEGG-NH2 [SEQ ID NO: 450] , the logged cAMP Primary assay EC50, n2 turned out to be 19.9 nM

The recorded cAMP Primary assay EC50, n2 for H[Aib]EGS[αMeF]TSDVSK([PEG2′-PEG2′-γGlu-Lauroyl])YLEGK([PEG2′-PEG2′-γGlu-Lauroyl])AA[αMeK]EFIK([PEG2′-PEG2′-γGlu-Lauroyl])FVVEGG-NH2 [SEQ ID NO: 444] is 19.7 nM

Entry H[Aib]EGS[αMeF]TSDVSK([PEG2′-PEG2′-γGlu-Lauroyl])YLEGEAA[αMeK]K([PEG2′-PEG2′-γGlu-Lauroyl])FIAK([PEG2′-PEG2′-γGlu-Lauroyl])VVEGG-NH2 [SEQ ID NO: 462] — recorded cAMP Primary assay EC50, n2 = 20 nM

get_value(item= H[Aib]EGS[αMeF]TSDV[αMeS]SYK([PEG2′-PEG2′-γGlu-Lauroyl])EGK([PEG2′-PEG2′-γGlu-Lauroyl])AA[αMeK]EFIAK([PEG2′-PEG2′-γGlu-Lauroyl])VVEGG-NH2 [SEQ ID NO: 468] , readout=cAMP Primary assay EC50, n2) returns 20 nM

GET /value?item= H[Aib]EGS[αMeF]TSDV[αMeS]SK([PEG2′-PEG2′-γGlu-Lauroyl])LEK([PEG2′-PEG2′-γGlu-Lauroyl])EAA[αMeK]EFIAFK([PEG2′-PEG2′-γGlu-Lauroyl])VEGG-NH2 [SEQ ID NO: 479] &field=cAMP Primary assay EC50, n2 returns 19.8 nM

Quick note, cAMP Primary assay EC50, n2 for H[Aib]EGS[αMeF]TSDVSK([PEG2′-PEG2′-γGlu-Lauroyl])YLEGK([PEG2′-PEG2′-γGlu-Lauroyl])AA[αMeK]EFIAFK([PEG2′-PEG2′-γGlu-Lauroyl])VEGG-NH2 [SEQ ID NO: 476] landed at 19.8 nM

The reported cAMP Primary assay EC50, n2 of the binder H[Aib]EGS[αMeF]TSDV[αMeS]SYK([PEG2′-PEG2′-γGlu-Lauroyl])EGK([PEG2′-PEG2′-γGlu-Lauroyl])AA[αMeK]EFIAFK([PEG2′-PEG2′-γGlu-Lauroyl])VEGG-NH2 [SEQ ID NO: 484] was 19.9 nM
